target_desc: D(2) dopamine receptor (Homo sapiens)
test_details: Dopamine D2 receptor (DRD2) small molecule agonists, cell-based qHTS assay (AID 1963594); note: nearly all actives have a fitted effect of over 35% in size
measurement_setup: HEK293-DRD2 cAMP HTRF, agonist mode, 30 min; series mostly up to 92.4 µM
Records with an inconclusive call do not appear. Calls of active or inactive are those of the source. Calls come from the whole dose curve.
property_name: activation

                                    compound    result
 0                   CC(C)(C)OOC(=O)c1ccccc1  inactive
 1                               CCN(CCO)CCO  inactive
 2                CC(C)Nc1nc(Cl)nc(NC(C)C)n1  inactive
 3  COC(=O)c1sccc1S(=O)(=O)NC(=O)Nc1nc(C)nc(OC)n1  inactive
 4       CCCCOC(=O)COC(=O)c1ccccc1C(=O)OCCCC  inactive
 5                                  CN(C)CCO  inactive
 6                                N#CC(Cl)Cl  inactive
 7                                   c1ccoc1  inactive
 8                                 O=C(O)CCl  inactive
 9                           NNC(=O)c1ccccc1  inactive
10  CC1C=[C-]C=C1.[C-]#[O+].[C-]#[O+].[C-]#[O+].[Mn]  inactive
11                 CCCCCCCCCCCCn1cc[n+](C)c1  inactive
12                          Clc1cccc(Cl)c1Cl  inactive
13                      O=C(O)c1nc(Cl)ccc1Cl  inactive
14                            COc1ccc(N)cc1N  inactive
15                                [O-][Cl+]O  inactive
16                   C=CCN(CC=C)C(=O)C(Cl)Cl  inactive
17  CC1(C)[C@H](C(=O)O[C@H](C#N)c2cccc(Oc3ccccc3)c2)[C@@H]1/C=C(\Cl)C(F)(F)F  inactive
18                             Cc1cccc(C)c1N  inactive
19                      CC(C)(C)C(=O)C(Cl)Cl  inactive
20                          CC(C)OS(C)(=O)=O  inactive
21  ClC1C(Cl)C(Cl)C(Cl)C(Cl)C1Cl (stereo unspecified)  inactive
22                               N#Cc1ccccn1  inactive
23  O=c1c2ccccc2c(=O)c2c1cc(Cl)c1[nH]c3c([nH]c12)c(Cl)cc1c(=O)c2ccccc2c(=O)c13  inactive
24  CC(C)(c1ccc(OCC2CO2)cc1)c1ccc(OCC2CO2)cc1 (stereo unspecified)  inactive
25  ClC1(Cl)C2(Cl)C3(Cl)C4(Cl)C(Cl)(Cl)C5(Cl)C3(Cl)C1(Cl)C5(Cl)C24Cl (stereo unspecified)  inactive
26     C1CC2OC2CC1C1CO1 (stereo unspecified)  inactive
27                         Oc1ccc(Cl)c(Cl)c1  inactive
28  C#CCOC(=O)/C=C(C)/C=C/CC(C)CCCC(C)C (stereo unspecified)  inactive
29                             O=C(O)C(Cl)Cl  inactive
30              CCCCOC(=O)c1ccccc1C(=O)OCCCC  inactive
